SYSTEM_TESTED: NPC2 (NPC2-His10) (Homo sapiens, UniProt P61916, V81D)
ASSAY_METHOD_TEXT: [3H]cholesterol saturation binding, Ni-NTA capture, scintillation counting
RESULT_TYPE: pKd
Reminder that pKd means the negative base-10 logarithm of the concentration expressed in mol/L.

Request: Need pKd, item CC(C)CCC[C@@H](C)[C@H]1CC[C@H]2[C@@H]3CC=C4C[C@@H](O)CC[C@]4(C)[C@H]3CC[C@]12C
Result: 7.14
